- Read-out: serum amyloid A (SAA), SAA1 (gene 6288)
- assay: BSK_CASM3C_SAA: BioMAP Diversity Plus: CASM3C Assay for serum amyloid A (SAA) Biomarker Activity (AID 2283049);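 further: SAA protein level quantified by ELISA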
- recorded-conditions: primary human coronary artery smooth muscle cells; actives raise or lower the signal
Active and inactive are the calls of the source. How the source made its calls: active means hit-call score of the fitted dose curve at least 0.9, where 1 is the maximum; inactive means score below 0.9.
// classify into active, inactive

Below are worked cases with known answers.
[[record]]
compound = "Cc1ccc2nc3sc(=O)sc3nc2c1"
class_label = "inactive"

[[record]]
compound = "c1ccc(-c2cccc(-c3ccccc3)c2)cc1"
class_label = "inactive"

[[record]]
compound = "CCOC(=O)CC(=O)CCl"
class_label = "inactive"

[[record]]
compound = "CC(C)=CC1C(C(=O)OCc2cccc(Oc3ccccc3)c2)C1(C)C (stereo not drawn)"
class_label = "inactive"

[[record]]
compound = "CCCCCCCCCCCCN(C)C"
class_label = "inactive"

[[record]]
compound = "CC(C)O.CC(C)O.OCCN(CCO)CCO.OCCN(CCO)CCO.[Ti]"
class_label = "inactive"


Data request: Please state the recorded outcome for this compound: OC(Cc1ccccc1Cl)(Cn1[nH]cnc1=S)C1(Cl)CC1 (stereo not drawn)
Data returned: active

Data request: Please state the recorded outcome for this compound: Oc1ccc(Cc2ccc(O)cc2)cc1
Data returned: inactive

Data request: Please state the recorded outcome for this compound: Cc1ccc(OP(=O)(Oc2ccc(C)cc2C)Oc2ccc(C)cc2C)c(C)c1
Data returned: inactive

Data request: Please state the recorded outcome for this compound: C[C@]12CC[C@@H](O)C[C@@H]1CC[C@@H]1[C@@H]2CC[C@]2(C)C(=O)CC[C@@H]12
Data returned: inactive

Data request: Please state the recorded outcome for this compound: CC(C)(C)c1cc([N+](=O)[O-])cc(C(C)(C)C)c1O
Data returned: inactive

Data request: Please state the recorded outcome for this compound: Clc1cccc(Cl)c1Cl
Data returned: inactive

* * *

- assay: ATG_PBREM_CIS: Attagene CIS-FACTORIAL HepG2 Assay for human Phenobarbital-responsive Enhancer Module (PBREM) (AID 2282955)
- recorded-conditions: HepG2 PBREM cis-reporter, Attagene multiplexed transcription; actives raise or lower the signal
Activity calls are given as the source filed them. How the source made its calls: active means hit-call score of the fitted dose curve at least 0.9, where 1 is the maximum; inactive means score below 0.9.
// classify into y (active), n (inactive)

[[record]]
smiles_string = "CNC(=O)O/N=C/C(C)(C)S(C)(=O)=O"
class_label = "n"

[[record]]
smiles_string = "CC(c1ccc(O)cc1)c1ccc(O)cc1"
class_label = "n"

[[record]]
smiles_string = "CCOP(=S)(OCC)SCSc1cc(Cl)ccc1Cl"
class_label = "n"

[[record]]
smiles_string = "OC[C@@H](O)[C@H]1O[C@@H]2O[C@H](C(Cl)(Cl)Cl)O[C@@H]2[C@H]1O"
class_label = "n"

[[record]]
smiles_string = "O=C1C[C@@H]2OCC=C3CN4CC[C@]56c7ccccc7N1[C@H]5[C@H]2[C@H]3C[C@H]46"
class_label = "n"


We now examine a further compound.
Data request: Please state the recorded outcome for this compound: CC(=Cc1ccccc1)[N+](=O)[O-]
Data returned: y

* * *

- assay: ATG_PPRE_CIS: Attagene CIS-FACTORIAL HepG2 Assay for human Peroxisome Proliferator-activated Response Element (PPRE) (AID 2282958)
- recorded-conditions: HepG2 PPRE cis-element reporter, Attagene transcription factor profiling; actives raise or lower the signal
Active and inactive are the calls of the source. How the source made its calls: active means hit-call score of the fitted dose curve at least 0.9, where 1 is the maximum; inactive means score below 0.9.
// classify into true (1) (active), false (0) (inactive)

Below are worked cases with known answers.
[[record]]
compound = "C[C@@H]1O[C@@H](O[C@H]2C[C@@H](O)[C@]3(CO)[C@H]4[C@H](O)C[C@]5(C)[C@@H](C6=CC(=O)OC6)CC[C@]5(O)[C@@H]4CC[C@]3(O)C2)[C@H](O)[C@H](O)[C@H]1O"
class_label = "false (0)"

[[record]]
compound = "C=C(C)C(=O)OCCCCOC(=O)C(=C)C"
class_label = "false (0)"

[[record]]
compound = "CC(C)(C#N)N=NC(C)(C)C#N"
class_label = "false (0)"


Data request: Please state the recorded outcome for this compound: COc1ccc([N+](=O)[O-])cc1O
Data returned: false (0)

Data request: Please state the recorded outcome for this compound: OC(Cc1ccccc1Cl)(Cn1[nH]cnc1=S)C1(Cl)CC1 (stereo not given)
Data returned: false (0)

Data request: Please state the recorded outcome for this compound: CC(c1ccccc1)(c1ccc(O)cc1)c1ccc(O)cc1
Data returned: false (0)

Data request: Please state the recorded outcome for this compound: O=S(=O)(F)C(F)(F)C(F)(F)C(F)(F)C(F)(F)F
Data returned: false (0)

Data request: Please state the recorded outcome for this compound: CC1(C)[C@H](C(=O)O[C@H](C#N)c2cccc(Oc3ccccc3)c2)[C@@H]1/C=C(\Cl)C(F)(F)F
Data returned: false (0)

Data request: Please state the recorded outcome for this compound: C=CC(=O)[O][Sn]([CH2]CCC)([CH2]CCC)[CH2]CCC
Data returned: true (1)

Data request: Please state the recorded outcome for this compound: Oc1cccc(-c2ccccc2)c1
Data returned: false (0)

* * *

- Read-out: Interleukin-8 (IL8), CXCL8 (gene 3576)
- assay: BSK_CASM3C_IL8: BioMAP Diversity Plus: CASM3C Assay for Interleukin-8 (IL8) Biomarker Activity (AID 2283042);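 further: IL-8 protein level quantified by ELISA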
- recorded-conditions: primary human coronary artery smooth muscle cells; actives raise or lower the signal
Active and inactive are the calls of the source. The calls were made as follows: active = hit-call score of the fitted dose curve at least 0.9, where 1 is the maximum; inactive = score below 0.9.
// classify into active, inactive

Below are worked cases with known answers.
[[record]]
compound = "[Cl][Sn]([c]1ccccc1)([c]1ccccc1)[c]1ccccc1"
class_label = "active"

[[record]]
compound = "Cc1ccc(OP(=O)(Oc2ccc(C)cc2C)Oc2ccc(C)cc2C)c(C)c1"
class_label = "inactive"

[[record]]
compound = "c1ccc2sc(SNC3CCCCC3)nc2c1"
class_label = "inactive"


Data request: Please state the recorded outcome for this compound: CCOP(=S)(OCC)SCS(=O)(=O)C(C)(C)C
Data returned: inactive

Data request: Please state the recorded outcome for this compound: O=S(=O)(c1ccc(Cl)cc1)c1cc(Cl)c(Cl)cc1Cl
Data returned: inactive

Data request: Please state the recorded outcome for this compound: NC(=O)CCl
Data returned: inactive

Data request: Please state the recorded outcome for this compound: CC1(C)[C@H](C(=O)O[C@H](C#N)c2cccc(Oc3ccccc3)c2)[C@@H]1/C=C(\Cl)C(F)(F)F
Data returned: inactive

Data request: Please state the recorded outcome for this compound: CCC(C)(C#N)N=NC(C)(C#N)CC (stereo not drawn)
Data returned: inactive

Data request: Please state the recorded outcome for this compound: C#CCOC(=O)/C=C(C)/C=C/CC(C)CCCC(C)C (stereo not drawn)
Data returned: inactive

Data request: Please state the recorded outcome for this compound: C=CC(Cl)CCl (stereo not drawn)
Data returned: inactive

Data request: Please state the recorded outcome for this compound: CCN(CC)C(=O)C(Cl)=C(C)OP(=O)(OC)OC
Data returned: inactive

Data request: Please state the recorded outcome for this compound: Nc1c(Oc2ccccc2)cc(O)c2c1C(=O)c1ccccc1C2=O
Data returned: inactive

Data request: Please state the recorded outcome for this compound: CCOP(=O)(OCC)SCCSCC
Data returned: inactive

* * *

- assay: BSK_SAg_PBMCCytotoxicity: PBMC Cytotoxicity Assessment in the BioMAP Diversity Plus: SAg Assay (AID 2283093);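 further: PBMC viability measured as Alamar Blue reduction fluorescence at 546/580 nm; fitted both ways against DMSO so a hit may be loss or gain of signal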;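 on AC50: PBMC superantigen activated with SEB plus TSST-1 one hour after compound addition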
- recorded-conditions: primary human HUVEC with PBMC
Activity calls are given as the source filed them. Rule for the calls: active = hit-call score of the fitted dose curve at least 0.9, where 1 is the maximum; inactive = score below 0.9.
readout-name: AC50

Look over these answered cases.
[[record]]
compound = "CCC(C)(C#N)N=NC(C)(C#N)CC (stereo not drawn)"
readout_name = "AC50"
assay_result = "inactive"

[[record]]
compound = "Cc1cc(C(C)(C)c2ccc(O)c(C)c2)ccc1O"
readout_name = "AC50"
assay_result = "15.7 µM (active)"

[[record]]
compound = "Nc1ccc(N)cc1"
readout_name = "AC50"
assay_result = "inactive"

[[record]]
compound = "CC(C)O.CC(C)O.OCCN(CCO)CCO.OCCN(CCO)CCO.[Ti]"
readout_name = "AC50"
assay_result = "inactive"


Data request: Tell me the measured AC50 of Cc1ccc2nc3sc(=O)sc3nc2c1 , please.
Data returned: inactive

Data request: Tell me the measured AC50 of O=C(CCl)NCO , please.
Data returned: inactive

Data request: Tell me the measured AC50 of O=S(=O)(c1ccc(Cl)cc1)c1cc(Cl)c(Cl)cc1Cl , please.
Data returned: inactive

Data request: Tell me the measured AC50 of Nc1c(Oc2ccccc2)cc(O)c2c1C(=O)c1ccccc1C2=O , please.
Data returned: inactive

Data request: Tell me the measured AC50 of c1ccc(-c2cccc(-c3ccccc3)c2)cc1 , please.
Data returned: 20 µM (active)

Data request: Tell me the measured AC50 of Cc1cc(C)cc(C)c1 , please.
Data returned: inactive

Data request: Tell me the measured AC50 of CC(C)(C)c1ccccc1O , please.
Data returned: inactive

Data request: Tell me the measured AC50 of O=c1oc2ccccc2c(O)c1C(CC(O)c1ccc(-c2ccc(Br)cc2)cc1)c1ccccc1 (stereo not drawn) , please.
Data returned: 23.5 µM (active)

Data request: Tell me the measured AC50 of C#CCOC(=O)/C=C(C)/C=C/CC(C)CCCC(C)C (stereo not drawn) , please.
Data returned: inactive

Data provenance: PubChem BioAssay (EPA / NIEHS)
